The reported measurements were obtained from paper PMC8070514.

assay: Hemolytic activity, minimal hemolysis concentration (MHC); format: cell-based; settings: method not described
Ends that are not written are not given here.

| SUBSTANCE | MHC (minimal hemolysis concentration), µg/mL |
| --- | --- |
| GANAAKKFATIAKKFINYLW-NH2 [GW-Q4a] | 32 |
| KKFATIAKKFINYLW-NH2 [Peptide Q4-15a] | 16 |
| KKFATIAKKFINKLW [Peptide Q4-15-1] | 256 |
| GANAAKKFATIAKKFINYLW [GW-Q4] | 128 |
| KKFATIAKKFINYLW [Peptide Q4-15] | 128 |
| KKFATIAKKFINKLW-NH2 [Peptide Q4-15a-1] | 256 |
| KKFATIAKKFINWLW [Peptide Q4-15-2] | 32 |
| KKFATIAKKFINWLW-NH2 [Peptide Q4-15a-2] | 16 |
